# pKd per entry
Biological target: von Willebrand factor full length (Homo sapiens, UniProt P04275 SEQ:764-2813)
Assay: filter
Details: tags: Calbiochem 681300
pKd: −log10 of the molar value.
reported-endpoint: pKd

binder="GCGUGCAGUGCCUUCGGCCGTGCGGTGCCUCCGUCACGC (mixed, 2'-OMe at 1-4,8-18,20,22,27,28,30,33,34,36-39, rest deoxy; PS between 4 and 5; 3'-idT) [ARC1362]" result=8.00
binder="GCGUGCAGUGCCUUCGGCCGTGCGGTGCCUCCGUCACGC (mixed, 2'-OMe at 1-4,8-18,20,22,27,28,30,33,34,36-39, rest deoxy; PS between 28 and 29; 3'-idT) [ARC1375]" result=8.06
binder="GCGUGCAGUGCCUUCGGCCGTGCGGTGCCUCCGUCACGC (mixed, 2'-OMe at 1-4,8-18,20,22,27,28,30,33,34,36-39, rest deoxy; PS between 30 and 31; 3'-idT) [ARC1377]" result=8.13
binder="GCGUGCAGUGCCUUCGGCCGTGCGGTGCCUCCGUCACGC (mixed, 2'-OMe at 1-4,8-18,20,22,27,28,30,33,34,36-39, rest deoxy; PS between 35 and 36; 3'-idT) [ARC1381]" result=8.06

These measurements were taken from patent US20060264369.
